System: THRa homodimer (NR concentration 90 nM)
Assay: PBM binding z-score (relative to random genomic background probes); higher = stronger binding; sequences stand for … in GC…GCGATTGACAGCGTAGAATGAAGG
Record form. Attribute: PBM binding z-score. Fill in for each entry.
One number for each entry.

INSERT INTO results (chain_sequence, recorded_result) VALUES
  ('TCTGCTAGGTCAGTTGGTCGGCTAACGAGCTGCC', -0.205);

For each of the sequences below, state PBM binding z-score.
1. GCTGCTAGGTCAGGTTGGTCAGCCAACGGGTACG
2. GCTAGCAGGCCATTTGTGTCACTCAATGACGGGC
3. CTCGAATGGTCGTGCTCAGGTGAGTATACCAAAC
4. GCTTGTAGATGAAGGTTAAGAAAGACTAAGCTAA

Result:
[0.269, -0.967, 0.835, -0.694]

For each of the sequences below, state PBM binding z-score.
1. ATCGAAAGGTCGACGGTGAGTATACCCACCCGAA
2. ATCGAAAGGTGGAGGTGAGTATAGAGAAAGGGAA
3. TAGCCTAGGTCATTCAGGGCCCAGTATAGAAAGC
4. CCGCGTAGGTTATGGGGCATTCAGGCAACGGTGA

Result:
[-0.262, 0.48, 0.59, 0.176]
